targetUnderTest: T1, orthogonal hCD122 receptor (hoRb), hCD122 with H133D and Y134F (human, UniProt P14784 27-550)
T1 sequence: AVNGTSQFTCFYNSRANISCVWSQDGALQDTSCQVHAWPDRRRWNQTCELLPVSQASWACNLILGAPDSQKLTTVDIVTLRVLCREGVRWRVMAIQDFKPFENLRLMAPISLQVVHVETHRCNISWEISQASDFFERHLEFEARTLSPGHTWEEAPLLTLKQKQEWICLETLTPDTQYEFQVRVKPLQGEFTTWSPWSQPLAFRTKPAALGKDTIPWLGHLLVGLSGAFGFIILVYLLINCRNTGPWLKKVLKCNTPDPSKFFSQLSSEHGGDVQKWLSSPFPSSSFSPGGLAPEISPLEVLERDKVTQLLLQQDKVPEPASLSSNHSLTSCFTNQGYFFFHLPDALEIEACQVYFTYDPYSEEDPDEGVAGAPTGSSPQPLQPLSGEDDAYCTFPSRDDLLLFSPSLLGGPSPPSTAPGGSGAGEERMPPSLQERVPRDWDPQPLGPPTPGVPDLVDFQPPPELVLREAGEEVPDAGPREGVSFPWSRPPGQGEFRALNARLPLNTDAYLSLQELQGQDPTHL
test: cell-based or functional assay
measurementName: NKL Ortho Proliferation Signal 1:10

Known results for binders:
| binder | measurementName | valueObserved |
| --- | --- | --- |
| Q126K, SQVLKA (ligand) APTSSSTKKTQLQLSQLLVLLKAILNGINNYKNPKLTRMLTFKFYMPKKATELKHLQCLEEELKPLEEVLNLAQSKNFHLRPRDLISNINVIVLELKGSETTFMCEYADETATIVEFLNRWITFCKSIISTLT | NKL Ortho Proliferation Signal 1:10 | 7930 |
| SQVLYA, E116G (ligand) APTSSSTKKTQLQLSQLLVLLYAILNGINNYKNPKLTRMLTFKFYMPKKATELKHLQCLEEELKPLEEVLNLAQSKNFHLRPRDLISNINVIVLELKGSETTFMCEYADETATIVEFLNRWITFCQSIISTLT | NKL Ortho Proliferation Signal 1:10 | 11600 |
| SQVLWA (ligand) APTSSSTKKTQLQLSQLLVLLWAILNGINNYKNPKLTRMLTFKFYMPKKATELKHLQCLEEELKPLEEVLNLAQSKNFHLRPRDLISNINVIVLELKGSETTFMCEYADETATIVEFLNRWITFCQSIISTLT | NKL Ortho Proliferation Signal 1:10 | 11100 |
| L18W, SQVLKA (ligand) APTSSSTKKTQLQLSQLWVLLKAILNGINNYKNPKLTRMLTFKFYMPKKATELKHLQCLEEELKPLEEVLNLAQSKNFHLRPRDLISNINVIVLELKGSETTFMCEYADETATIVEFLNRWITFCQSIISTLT | NKL Ortho Proliferation Signal 1:10 | 17000 |
| M39L, SQVLKA (ligand) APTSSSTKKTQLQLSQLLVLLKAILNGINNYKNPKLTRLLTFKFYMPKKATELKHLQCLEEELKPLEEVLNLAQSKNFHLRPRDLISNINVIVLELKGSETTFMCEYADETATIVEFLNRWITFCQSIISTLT | NKL Ortho Proliferation Signal 1:10 | 44100 |

a = L14W, SQVLKA (ligand) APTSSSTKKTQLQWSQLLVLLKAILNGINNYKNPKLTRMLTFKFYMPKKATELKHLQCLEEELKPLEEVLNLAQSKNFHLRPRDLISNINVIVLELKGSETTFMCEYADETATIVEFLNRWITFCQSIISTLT
b = R81D, SQVLKA (ligand) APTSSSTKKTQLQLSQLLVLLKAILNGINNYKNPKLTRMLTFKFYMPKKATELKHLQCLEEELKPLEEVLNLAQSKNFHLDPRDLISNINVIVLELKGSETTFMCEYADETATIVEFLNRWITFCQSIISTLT
Query: Given the listed records, identify the one among a and b with higher NKL Ortho Proliferation Signal 1:10. Use the label to indicate which entry you chose.
Result: b
